target: BoNT/B neurotoxin (Clostridium botulinum, UniProt P10844); type: binding
Sequence (P10844 whole entry, looked up): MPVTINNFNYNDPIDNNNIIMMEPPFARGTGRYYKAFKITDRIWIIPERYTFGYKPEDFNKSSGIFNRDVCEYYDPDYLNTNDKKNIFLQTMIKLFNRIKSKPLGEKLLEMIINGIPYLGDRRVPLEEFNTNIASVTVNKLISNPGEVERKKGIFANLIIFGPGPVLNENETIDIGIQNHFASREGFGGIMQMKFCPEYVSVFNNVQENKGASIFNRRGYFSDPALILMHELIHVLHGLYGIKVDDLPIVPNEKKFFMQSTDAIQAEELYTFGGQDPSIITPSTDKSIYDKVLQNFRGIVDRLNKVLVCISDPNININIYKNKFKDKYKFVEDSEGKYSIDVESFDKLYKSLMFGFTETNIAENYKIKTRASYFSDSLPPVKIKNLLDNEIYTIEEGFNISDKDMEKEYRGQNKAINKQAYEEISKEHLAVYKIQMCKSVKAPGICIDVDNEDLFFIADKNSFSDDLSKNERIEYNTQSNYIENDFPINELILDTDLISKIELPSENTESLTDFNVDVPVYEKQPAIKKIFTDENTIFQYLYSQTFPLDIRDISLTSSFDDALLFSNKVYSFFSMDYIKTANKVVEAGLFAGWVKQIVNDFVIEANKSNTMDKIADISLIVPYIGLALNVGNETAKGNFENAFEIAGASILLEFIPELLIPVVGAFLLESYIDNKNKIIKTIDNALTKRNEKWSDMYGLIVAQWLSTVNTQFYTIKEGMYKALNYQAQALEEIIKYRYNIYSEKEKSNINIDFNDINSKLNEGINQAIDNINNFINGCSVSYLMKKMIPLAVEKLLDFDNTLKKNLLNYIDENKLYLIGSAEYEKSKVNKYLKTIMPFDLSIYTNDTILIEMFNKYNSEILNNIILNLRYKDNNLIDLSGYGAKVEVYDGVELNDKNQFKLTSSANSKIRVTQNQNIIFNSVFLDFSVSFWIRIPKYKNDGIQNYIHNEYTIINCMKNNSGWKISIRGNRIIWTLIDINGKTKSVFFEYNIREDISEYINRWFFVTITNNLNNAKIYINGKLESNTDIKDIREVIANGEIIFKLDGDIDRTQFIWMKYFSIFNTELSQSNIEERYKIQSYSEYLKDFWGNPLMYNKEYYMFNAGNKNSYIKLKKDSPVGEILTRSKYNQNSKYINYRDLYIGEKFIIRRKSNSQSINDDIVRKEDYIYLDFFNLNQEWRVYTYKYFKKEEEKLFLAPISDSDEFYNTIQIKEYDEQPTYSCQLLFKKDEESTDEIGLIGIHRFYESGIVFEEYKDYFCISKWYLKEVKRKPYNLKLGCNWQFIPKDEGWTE
Where a SMILES comes first, the peptide text is derived from it. [ ]: non-standard residue; d: D form.
Parameter Measured: binding of BoNT/B to D-peptide bead (positive bead sequenced)

compound="NCCCC[C@@H](NC(=O)[C@@H](CCCCN)NC(=O)[C@@H](CCCCN)NC(=O)[C@@H](Cc1ccccc1)NC(=O)[C@@H](Cc1ccccc1)NC(=O)[C@@H](Cc1ccc(O)cc1)NC(=O)[C@@H](Cc1ccccc1)NC(=O)CN)C(=O)O [GFYFF] (H-G[dF][dY][dF][dF][dK][dK][dK]-OH; C-terminus assumed)" recorded_value=binding
compound="C[C@@H](NC(=O)CN)C(=O)N[C@H](Cc1ccccc1)C(=O)N[C@H](Cc1ccccc1)C(=O)N[C@H](Cc1c[nH]c2ccccc12)C(=O)N[C@H](CCCCN)C(=O)N[C@H](CCCCN)C(=O)N[C@H](CCCCN)C(=O)O [GAFFW] (H-G[dA][dF][dF][dW][dK][dK][dK]-OH; C-terminus assumed)" recorded_value=identified
compound="NCCCC[C@@H](NC(=O)[C@@H](CCCCN)NC(=O)[C@@H](CCCCN)NC(=O)[C@@H](Cc1ccc(O)cc1)NC(=O)[C@@H](Cc1ccccc1)NC(=O)[C@@H](Cc1ccccc1)NC(=O)[C@@H](Cc1ccccc1)NC(=O)CN)C(=O)O [GFFFY] (H-G[dF][dF][dF][dY][dK][dK][dK]-OH; C-terminus assumed)" recorded_value=binding
compound="NCCCC[C@@H](NC(=O)[C@@H](CCCCN)NC(=O)[C@@H](CCCCN)NC(=O)[C@@H](Cc1ccc(O)cc1)NC(=O)[C@@H](Cc1c[nH]c2ccccc12)NC(=O)CNC(=O)[C@@H](Cc1ccccc1)NC(=O)CN)C(=O)O [GFGWY] (H-G[dF]G[dW][dY][dK][dK][dK]-OH; C-terminus assumed)" recorded_value=identified
